System: AmpC beta-lactamase (E. coli)
Assay Text: AmpC inhibition relative to DMSO; higher = more inhibition
Experimental Parameters: 4 µM; detergent: 0.01% Triton X-100
Measurement Type: AmpC inhibition (%)
Numbers only, in %.

Example results:
Challenge: Give its AmpC inhibition value. Item: COc1ccc(/C(Cl)=C(/C=O)c2ccc(OC)cc2)cc1
Response given: -3.57

Challenge: Now consider CCCCCCCc1ccc(CCc2cccc(O)c2C(=O)O)cc1 and answer again.
Response given: 1.37

Challenge: Entry to check: CCCCCCCCCCCCCCCc1cccc(O)c1C(=O)O
Response given: 6.97

Report AmpC inhibition for each item below.
1. Cc1cc(-c2ccccc2)cc(C(=O)NNS(=O)(=O)c2ccccc2)c1F
2. O=C(NNS(=O)(=O)c1ccccc1)c1cc(-c2ccnnc2)ccc1F
3. C=C(C)[C@@H](CC=C(C)C)C[C@@]12C[C@@H](CC=C(C)C)C(C)(C)[C@@](CC=C(C)C)(C(=O)/C(=C(\O)c3ccc(O)c(O)c3)C1=O)C2=O
4. CCCC1(c2ccccc2)NC(=O)N(CC(=O)N(C)Cc2c(F)cccc2Cl)C1=O (centres undefined)
5. CNC(=O)Nc1ccc2c(c1)[C@@]1(CC2)OC(=O)N(CC(=O)N(Cc2ccc(F)cc2)[C@@H](C)C(F)(F)F)C1=O
6. CCCCCOc1ccc(/C=C\c2cccc(O)c2C(=O)O)cc1

Response given:
[10.3, 9.2, 13.6, 14.2, 9.1, -1.02]
